# reported normalized RNA/DNA level without ligand (log10); entries follow
B1: library; a variant is named by its letters at N, in order (parent)
chain: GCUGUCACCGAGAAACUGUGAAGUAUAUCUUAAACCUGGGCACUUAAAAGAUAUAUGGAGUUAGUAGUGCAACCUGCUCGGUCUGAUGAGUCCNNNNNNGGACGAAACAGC

- Variants of: B1
- assay.protocol: normalized RNA/DNA level without ligand (relative to sTRSVctl = 100) (log10 (% of sTRSVctl)); HEK293T; ligand: cyclic di-GMP (c-di-GMP-II aptamer); higher = less ribozyme self-cleavage, higher mRNA level
- recorded.conditions: reporter: mCherry (pCS4076), ligand present: no
Answer with a bare number; do not write a unit.

Worked examples follow.
CCAUUU : 1.57
CAAUCC : 1.75

Here is another variant to look at.
The reported normalized RNA/DNA level without ligand (log10) of the variant GAUGAG was 1.55
